- Tested on: IGROV1 ovarian
- Assay explanation: NCI tumour cell line growth inhibition, 48 h
Item-by-item account of TGI
Endpoint: TGI

| Molecule | Endpoint value |
| --- | --- |
| CCOc1ccc2nc(SCc3nc4n(n3)S(=O)(=O)c3ccccc3N4C)sc2c1 | > 100 µM |
| C[C@]12CC[C@H]3[C@@H](CC=C4C[C@@H](N5CCCC5)CC[C@@]43C)[C@@H]1C[C@H](N1CCOCC1)[C@@H]2O | > 100 µM |
| CCCCC(=O)NS(=NC(=O)c1ccccc1)C(Cl)(Cl)Cl (stereo unspecified) | > 100 µM |
| Cc1ccc(NC(=O)C2C(=O)N(c3ccc(C)cc3)C(=O)/C2=N\NC(N)=S)cc1 (stereo unspecified) | > 100 µM |
| COc1ccc(S(=O)(=O)N2CC(C)(C)CN(S(=O)(=O)c3ccc(OC)cc3)C2C(=O)NO)cc1 | > 20 µM |
| COc1ccc(/C=N/n2cnc3c(sc(=S)n3-c3ccccc3)c2=O)cc1 | > 100 µM |
